These entries and their values trace back to the supplement of paper PMC7877785.

Experiment: self-splicing fitness, log relative to wild type (ln ratio); higher = more splicing; Tetrahymena group I intron in knt gene, E. coli kanamycin selection, DiMSum; sequences stand for … in CUCUCU…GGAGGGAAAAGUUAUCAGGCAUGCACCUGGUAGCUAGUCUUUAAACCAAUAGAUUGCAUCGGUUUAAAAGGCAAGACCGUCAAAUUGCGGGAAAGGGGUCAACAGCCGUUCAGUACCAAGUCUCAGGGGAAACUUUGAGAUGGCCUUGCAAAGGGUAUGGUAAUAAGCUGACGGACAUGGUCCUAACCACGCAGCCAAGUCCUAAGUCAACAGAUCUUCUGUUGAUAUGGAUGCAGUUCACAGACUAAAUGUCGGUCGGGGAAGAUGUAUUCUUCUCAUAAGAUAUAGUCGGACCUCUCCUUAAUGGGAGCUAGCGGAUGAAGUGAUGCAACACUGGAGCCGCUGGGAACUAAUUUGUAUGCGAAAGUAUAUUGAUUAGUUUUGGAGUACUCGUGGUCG;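 further: selection with 25 µg/mL kanamycin versus none on LB agar overnight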
Details: 37 °C
READOUT_KIND: self-splicing fitness (ln)

{"CONSTRUCT_SEQUENCE": "UAGGAGCAAUAUUACGGAUC", "READOUT_KIND": "self-splicing fitness (ln)", "RESULT_NUMBER": -0.998}
{"CONSTRUCT_SEQUENCE": "UUGCAGCAAUAUUACGCGGG", "READOUT_KIND": "self-splicing fitness (ln)", "RESULT_NUMBER": -2.03}
{"CONSTRUCT_SEQUENCE": "CGCAAGCAAUAUUACGUUUA", "READOUT_KIND": "self-splicing fitness (ln)", "RESULT_NUMBER": -1.98}
{"CONSTRUCT_SEQUENCE": "AAAGAGCAAUAUUACGAACA", "READOUT_KIND": "self-splicing fitness (ln)", "RESULT_NUMBER": -2.02}

* * *

Here the recorded self-splicing fitness (ln) is given for each entry.
Assay: self-splicing fitness, log relative to wild type (ln ratio); higher = more splicing; Tetrahymena group I intron in knt gene, E. coli kanamycin selection, DiMSum; sequences stand for … in CUCUCU…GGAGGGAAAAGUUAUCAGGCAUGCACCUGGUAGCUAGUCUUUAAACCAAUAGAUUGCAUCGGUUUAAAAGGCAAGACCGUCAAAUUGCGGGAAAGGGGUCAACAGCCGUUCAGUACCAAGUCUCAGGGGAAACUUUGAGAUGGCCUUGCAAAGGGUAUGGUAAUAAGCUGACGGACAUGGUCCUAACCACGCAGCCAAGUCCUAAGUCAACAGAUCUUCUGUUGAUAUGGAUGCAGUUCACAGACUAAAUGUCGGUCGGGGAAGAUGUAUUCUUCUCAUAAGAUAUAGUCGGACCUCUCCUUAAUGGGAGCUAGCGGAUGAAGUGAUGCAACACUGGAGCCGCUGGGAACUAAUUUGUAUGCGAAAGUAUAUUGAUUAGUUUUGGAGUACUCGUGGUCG
Details: 37 °C

{"CONSTRUCT_SEQUENCE": "GAGGAGCAAUAUUACGUGAU", "self-splicing fitness (ln)": -2.02}
{"CONSTRUCT_SEQUENCE": "UUGUAGCAAUAUUACGGAUU", "self-splicing fitness (ln)": -2}
{"CONSTRUCT_SEQUENCE": "CCAAAGCAAUAUUACGAUUU", "self-splicing fitness (ln)": -1.98}
{"CONSTRUCT_SEQUENCE": "AUCUAGCAAUAUUACGAGGA", "self-splicing fitness (ln)": -2.01}
